// data source = PubChem BioAssay (NCI)

tested on: UACC-62 melanoma; experiment: NCI-60 one-dose screen, 48 h (100 = growth as untreated, 0 = no growth, -100 = all killed); details: 10 µM unless noted
About 83,000 compounds went through this panel and 20% of them were active in at least one assay; those are over-represented in the sample as a whole.
growth by entry:
assay-endpoint: growth (%)

• Cc1c(O)c(N=Nc2ccc(C(=O)O)c(O)c2)c2ccccc2c1O = 92.5
• O=C(/C=C/c1ccc(Cl)cc1)c1ccc(Cl)cc1 = 90.4
• N=C(N)c1ccc(-c2ccc(-c3ccc(Cl)cc3)s2)s1 = -31.2
• Cn1cnc2nc[nH]c2c1=S = 98.5
• O=C(CN1C(=O)NC(c2ccccc2)(c2ccccc2)C1=O)c1ccc(N2CCCC2)cc1 = 89.5
• CCCCCSc1ccc2nc(NC(=O)OCCC)sc2c1 = 31.1
• O=C(Oc1ccccc1)c1ccccc1Cl = 107
• CC([C@H]1CCC2C3CCC4C[C@@H](N)CC[C@]4(C)C3CC[C@@]21C)N(C)C (stereo partly drawn) = 50.9
• CCOC(=O)c1cc(-c2ccc(OC)cc2)[nH]c1NNC(=O)CCOC = 93.6
• COc1ccc(C(=O)N2N=C(c3ccc(Br)cc3)CC2c2cn(-c3ccccc3)nc2-c2ccccc2)cc1 (stereo not drawn) = 74.7
• Cc1sc(NC(=O)c2ccc(C(C)(C)C)cc2)c(C(=O)O)c1C = 98.4
• CCOC(=O)c1ccc2n1CCCc1cnc(NC(C)=O)nc1-2 = 93.9
• O=C(Nc1ccc(Cl)c(Cl)c1)O/N=C\c1c(Cl)ccc([N+](=O)[O-])c1Cl = -63.5
• Cc1c([C@H](C(Cl)Cl)[C@H](O)[C@H]2C[C@H](C)C(=O)O2)ccc2c1C(=O)[C@H]1[C@H]2C[C@@H](Br)[C@@]23O[C@@H](CO[C@H]2O)CC13C (stereo partly drawn) = 26.6
• C=CCN(C)C = 101
• O=C(Nc1cccc(Cn2c(=O)[nH]c3ccc(Oc4ncccn4)cc3c2=O)c1)c1cccc(F)c1 = 58.4
• CC(=O)N(N=O)c1ccc([N+](=O)[O-])cc1Cl = 27.9
• CCN(CC)CCOC(=O)c1cccnc1 = 103
• COc1ccc(Nc2c3ccccc3nc3ccccc23)cc1 = 47.6
• O=C(CCC(=O)N(CCO)CCO)N(CCO)CCO = 109
• COc1ccc2c(c1)cn1c3ccc(O)cc3[nH]c(=O)c21 = 39
• O=C1c2ccccc2CCc2ccccc21 = 95.6
• Clc1ccc(N/N=C(/c2ccccc2)c2ccccn2)nc1 = 32.5
• CCOC(=O)CSSCC(=O)OCC = 98.4
• CCS(=O)(=O)OCCO[C@H]1Cc2cc3ccc(=O)oc3cc2OC1(C)C = 102
• COC(=O)c1ccc2[nH]c(O)c(C(=Nc3ccc(N(C)C(=O)CN4CCN(C)CC4)cc3)c3ccc(CCO)cc3)c2c1 = 73.7
• Cc1ccc(C(C)C)c(OCc2ccc(C(=O)N/N=C/c3cccc(O)c3O)cc2)c1 = 30.8
• COc1cc(CCNc2cnc3cc(N)cc(N)c3n2)cc(OC)c1 = 109
• CCCCCCCCCCCCCCCCNC(=S)N/N=C/c1ccc(O)cc1O = 56.5
• Cc1ncc(C(=O)Nc2ccc(CN3CCN(C)CC3)c(C(F)(F)F)c2)cc1C#Cc1c(N)ncc2ccccc12 = -82.3
• CCCCCCCCC/C(=N\NC(=O)c1ccncc1)c1ccc(O)c(O)c1O = -5.54
• C#CCCCCCCC[C@@H]1OC(=O)[C@H]([C@@H](C)CC)NC(=O)[C@@H]([C@@H](C)CC)NC(=O)CC(=O)[C@@H]1C = 83
• O=C1N/C(=N\c2nnc(-c3ccc(O)cc3)s2)S/C1=C\c1ccccc1O = 97.6
• O=C(N/N=C\c1ccc(Cl)cc1)C(=O)N/N=C\c1ccc(Cl)cc1 = 97.4
• Cc1[nH]n(C(=S)Nc2nc3cc(Cl)c(F)cc3s2)c(=O)c1N=Nc1ccc(F)c(Cl)c1 = 92.8
• COc1ccc(-c2nc(SCC(C)C)nc(Nc3ccc([N+](=O)[O-])cc3)c2C#N)cc1 = 99
• O=C1/C(=N\c2cc(=O)[nH]n2S(=O)(=O)c2ccccc2)Nc2ccccc21 = 97.6
• CCN(CC)CCNc1ncnc2c1cnn2-c1ccc(Cl)cc1 = -50.5
• COc1cc(-c2c3c(cn2CCN2CCCCC2)-c2oncc2CC3)cc(OC)c1OC = 90.4
• O=C(N/N=C/c1cc(Cl)ccc1O)C(=O)N/N=C/c1cc(Cl)ccc1O = 64.7
• COc1ccc2c(c1)/C(=C1/S/C(=N/c3nnc(C)s3)NC1=O)C(=O)N2Cc1ccc(Br)cc1 = 32.9
• CC(C)(C)OC(=O)N1C/C(=C\c2ccccc2)C(=O)/C(=C/c2ccccc2)C1 = 84
• CCCCCc1ccnc(CC(=O)c2ccc(OC)cc2)c1 = 89.5

----------
system: SK-MEL-5 melanoma; assay: NCI-60 one-dose screen, 48 h (100 = growth as untreated, 0 = no growth, -100 = all killed); settings: 10 µM unless noted
The panel holds about 83,000 compounds, 20% with a hit somewhere; the sample as a whole holds those more often.
Each item that follows carries a reported growth.
assay-endpoint: growth (%)

• CC1=NN(c2cccc(Cl)c2)C(=O)/C1=C\c1cn(-c2nc(N3CCOCC3)nc(N3CCOCC3)n2)c2ccccc12 = 101
• COC(=O)/C(Br)=C/c1c[nH]c2ccc(Br)cc12 = 85.1
• CC(C)(C)c1ccc([I+]c2ccc(C(C)(C)C)cc2)cc1 = -94.7

----------
system: UO-31 renal; assay: NCI-60 one-dose screen, 48 h; settings: 10 µM unless noted
The panel holds about 83,000 compounds, 20% with a hit somewhere; the sample as a whole holds those more often. The source made the active and inactive calls. How the source made its calls: active means growth percent below 10; inactive means the rest.
Possible outcomes: true (1) (active), false (0) (inactive)

* CN(CCC#N)c1ccc(/C=C(\C#N)c2cccc(C(F)(F)F)c2)cc1 | false (0)
* CC[C@H](Nc1ncnc2nc[nH]c12)c1nc2cccc(NCc3ccc(C(=O)NO)nc3)c2c(=O)n1-c1ccccc1 | false (0)
* COc1ccc2cnc(N)c(C#Cc3cc(C(=O)Nc4ccc(CN5CCN(C)CC5)c(C(F)(F)F)c4)cnc3C)c2c1 | true (1)
* O=C(Nc1cccc(Cn2c(=O)[nH]c3ccc(Oc4ncccn4)cc3c2=O)c1)c1ccc(Cl)cc1 | false (0)
* Cc1c(O)c(N=Nc2ccc(C(=O)O)c(O)c2)c2ccccc2c1O | false (0)
* CCOC(=O)C1C(=O)C(=O)N(C(C)C)C1C(=O)OCC (stereo not given) | false (0)
* O=c1c2c(c3ccccc3n1-c1ccccc1)NC(=S)NC2c1ccc(Cl)cc1 (stereo not given) | false (0)
* O=C(O)COc1ccc([N+](=O)[O-])cc1Cl | false (0)
* COc1ccc(-c2nnc(SCC(=O)Nc3ccc(C(=O)/C=C/c4cc(OC)c(OC)c(OC)c4)cc3)n2-c2ccccc2)cc1OC | false (0)
* O=c1c(N=Nc2nccs2)c(-c2ccccc2)[nH]n1-c1nc(-c2ccccc2)cs1 | false (0)

----------
system: UACC-62 melanoma; assay: NCI-60 one-dose screen, 48 h (100 = growth as untreated, 0 = no growth, -100 = all killed); conditions: 10 µM unless noted
This is part of a sample that, as a whole, favours compounds with a hit. Of some 83,000 tested, about 20% had one in any assay.
assay-endpoint: growth (%)

- c1ccc(Nc2ncc3c(n2)-c2cccn2CC3)cc1: 80.1
- Oc1ccc([S+](c2ccc(O)cc2)c2ccc(O)cc2)cc1: 101
- CCCCCCCCCCCCCCCCNC(=O)Nc1ccc(C)c(NC(=O)NCCCCCCCCCCCCCCCC)c1: 95.5
- CCCCCCCCCCCCCCCCCCOP(=O)(O)O: 91.5
- CC(=O)OC1CC2C3CCC4C[C@@H](NC(=O)C=C(C)C)CC[C@]4(C)C3CC[C@]2(C)[C@H]1C(C)N(C)C (stereo partly specified): -52.6
- Cc1nnc(/N=C2\NC(=O)/C(=C/C=C/c3ccccc3)S2)s1: 46.1
- COc1cc2ncnc(-n3ncc4cc(NC(=O)Nc5ccccc5)ccc43)c2cc1OC: 23.9
- O=C1/C(=C\c2cn(-c3nc(N4CCOCC4)nc(N4CCOCC4)n3)c3ccccc23)c2ccccc2N1c1c(Cl)cccc1Cl: 46.6
- COc1ccc2nc3cc(Cl)ccc3c(NCCCNC(C)=O)c2c1: 42.6
- O=C(O)CC1Cc2ccccc2C1C(=O)O (stereo unspecified): 97.3
- C=C(NC(=O)[C@H](C(C)C)N(C)c1cccc2[nH]ccc12)C(=O)OC: 90.5
- O=C(/C=C/c1ccc(Br)cc1)c1ccccc1: 92.2
- C/C(=N\Nc1cccc(Cl)n1)c1ccccn1: -24.1
- CCOc1ccc(N(C)c2ccc(/C=C/C3=[N+](C)c4ccccc4C3(C)C)cc2)cc1: 28.5
- O=C1C=C(OCC=C(C(F)(F)F)C(F)(F)F)c2ccccc2C1=O: 63.7
- COc1cc(-c2nn(-c3ccc(NC(=O)c4cc(Cl)cc(Cl)c4)cc3)cc2-c2ccncc2)ccc1Cl: 70.4
- O=C(Nc1cccc(Cn2c(=O)[nH]c3ccc(Oc4ncccn4)cc3c2=O)c1)c1cc(Cl)cc(Cl)c1: 66.6
- CC(C)(C)C(=O)CCCCCCCC/C=C/CCCC(O)c1ccco1 (stereo unspecified): 95.2
- O=C(/C=C1\C(=O)N(Cc2ccc([N+](=O)[O-])cc2)c2ccccc21)c1ccc(OCCN2CCCCC2)cc1: -74
- O=C(N/N=C/c1coc2ccccc2c1=O)c1cc2oc(-c3ccccc3)cc2[nH]1: 94.6
- O=C(Nc1cccc(Cn2c(=O)[nH]c3ccc(Oc4ncccn4)cc3c2=O)c1)c1ccc(Cl)cc1: 53.9
